- SYSTEM_UNDER_TEST: Tyrosyl-tRNA synthetase, putative (Trypanosoma cruzi (strain CL Brener))
- METHOD_DESCRIPTION: Trypanosoma cruzi tyrosyl tRNA synthetase (TcYRS) _High Tyrosine SOP; also: in the data most compounds retested in dose-response had high values
- Type: functional
- Set-up: scale not given: direction of the effect not stated beside the values
- EXPERIMENTAL_CONTEXT: 30 µM
ENDPOINT: Percent Effect
Report as: number unit

Consider the reported Percent Effect for these molecules:
{"columns": ["MOLECULE", "RESULT"],
 "data": [
  ["c1ccc(CN2CCCC(c3nccnc3-n3ccnc3)C2)cc1 (configuration not stated)", "5.32%"],
  ["CSc1nccn1-c1cccc(C(=O)NCC2CC2)c1", "5.42%"],
  ["COCCN1CCC(CNC(=O)C2(c3cc(C)cc(C)c3)CCC2)C1 (configuration not stated)", "2.46%"],
  ["Cc1cnn(CC2CN(CCN3CCCC3=O)CCO2)c1 (configuration not stated)", "-3.23%"],
  ["Cc1nnc(C(C)NCC2(c3ccc(Cl)cc3)CCCC2)o1 (configuration not stated)", "0.529%"]
]}

Batch request: Percent Effect per item, same order as input.
1. O=C(c1ccccc1OCC1CC1)N1CCCC(n2ccnc2)C1 (configuration not stated)
2. CC(=O)N(C)c1nc(CN2CCOC(Cn3cccn3)C2)cs1 (configuration not stated)

1: 2.08%; 2: 4.76%

Batch request: Percent Effect per item, same order as input.
1. CCc1nc(C2CCCN2Cc2nccn2Cc2ccccc2)no1 (configuration not stated)
2. Cc1cc2c(=O)n3c(nc2s1)CCN(C(=O)c1cnn(C)c1C)CC3
3. Cc1cnn(CC2CCCN2C(=O)c2cccc(-n3cnnn3)c2)c1 (configuration not stated)
4. Cc1ccc(C(CNCc2ccncc2)N2CCOCC2)s1 (configuration not stated)

2.86%
5.38%
2.46%
1.98%

Let me know recorded Percent Effect for `COCCO[C@@H]1CCN(C(=O)c2ccc(C)o2)[C@@H]1Cc1cccnc1` , thanks.
5.94%

====

- SYSTEM_UNDER_TEST: Ubiquitin-activating enzyme e1, putative (Leishmania donovani (strain BPK282A1))
- METHOD_DESCRIPTION: Leishmania donovani Ubiquitin Activating Enzyme (LdE1)
- Type: functional
- Design: scale not given: direction of the effect not stated beside the values
- EXPERIMENTAL_CONTEXT: 30 µM
Results with a measured potency or affinity are listed apart.
Lab note: cut-off is 10%. Strictly less in Percent Effect is Yes. Exactly 10% or more is No.

{"columns": ["MOLECULE", "CATEGORY"],
 "data": [
  ["Cc1nc2ccccc2nc1CN1CCCC1c1c(C)nn(C)c1C (stereo unspecified)", "Yes"],
  ["O=C(CCc1cc(O)no1)N1CCCC(COc2ccc(F)cc2)C1 (stereo unspecified)", "No"],
  ["Cc1nc(CN(C)C2CCN(Cc3ccc4c(c3)OCCO4)C2)no1 (stereo unspecified)", "No"]
]}

Decide: Percent Effect of `COc1ccc(CNC(=O)CNc2cc3c(cc2Cl)OCCCO3)cc1` strictly below 10%?
Yes

Decide: Percent Effect of CSc1ccc(C(CNC(=O)C2CC2)N2CCc3sccc3C2)cc1 (stereo unspecified) strictly below 10%?
Yes

Decide: Percent Effect of `CC(C)c1nc(CCNC(=O)NCc2ccnc(N(C)C)c2)cs1` strictly below 10%?
Yes

Decide: Percent Effect of `CNC(=O)CN1CCC(NC(=O)N(C)Cc2cc(C)on2)CC1` strictly below 10%?
No
